compounds and their reported ALK % of inhibition at a concentration of 500 nM or 1 mM
# targetEntity: Recombinant Human Anaplastic Lymphoma Kinase (Homo sapiens)
# Construct: purchased Invitrogen, Carlsbad, Calif
# Sequence (Q9UM73 19-1620): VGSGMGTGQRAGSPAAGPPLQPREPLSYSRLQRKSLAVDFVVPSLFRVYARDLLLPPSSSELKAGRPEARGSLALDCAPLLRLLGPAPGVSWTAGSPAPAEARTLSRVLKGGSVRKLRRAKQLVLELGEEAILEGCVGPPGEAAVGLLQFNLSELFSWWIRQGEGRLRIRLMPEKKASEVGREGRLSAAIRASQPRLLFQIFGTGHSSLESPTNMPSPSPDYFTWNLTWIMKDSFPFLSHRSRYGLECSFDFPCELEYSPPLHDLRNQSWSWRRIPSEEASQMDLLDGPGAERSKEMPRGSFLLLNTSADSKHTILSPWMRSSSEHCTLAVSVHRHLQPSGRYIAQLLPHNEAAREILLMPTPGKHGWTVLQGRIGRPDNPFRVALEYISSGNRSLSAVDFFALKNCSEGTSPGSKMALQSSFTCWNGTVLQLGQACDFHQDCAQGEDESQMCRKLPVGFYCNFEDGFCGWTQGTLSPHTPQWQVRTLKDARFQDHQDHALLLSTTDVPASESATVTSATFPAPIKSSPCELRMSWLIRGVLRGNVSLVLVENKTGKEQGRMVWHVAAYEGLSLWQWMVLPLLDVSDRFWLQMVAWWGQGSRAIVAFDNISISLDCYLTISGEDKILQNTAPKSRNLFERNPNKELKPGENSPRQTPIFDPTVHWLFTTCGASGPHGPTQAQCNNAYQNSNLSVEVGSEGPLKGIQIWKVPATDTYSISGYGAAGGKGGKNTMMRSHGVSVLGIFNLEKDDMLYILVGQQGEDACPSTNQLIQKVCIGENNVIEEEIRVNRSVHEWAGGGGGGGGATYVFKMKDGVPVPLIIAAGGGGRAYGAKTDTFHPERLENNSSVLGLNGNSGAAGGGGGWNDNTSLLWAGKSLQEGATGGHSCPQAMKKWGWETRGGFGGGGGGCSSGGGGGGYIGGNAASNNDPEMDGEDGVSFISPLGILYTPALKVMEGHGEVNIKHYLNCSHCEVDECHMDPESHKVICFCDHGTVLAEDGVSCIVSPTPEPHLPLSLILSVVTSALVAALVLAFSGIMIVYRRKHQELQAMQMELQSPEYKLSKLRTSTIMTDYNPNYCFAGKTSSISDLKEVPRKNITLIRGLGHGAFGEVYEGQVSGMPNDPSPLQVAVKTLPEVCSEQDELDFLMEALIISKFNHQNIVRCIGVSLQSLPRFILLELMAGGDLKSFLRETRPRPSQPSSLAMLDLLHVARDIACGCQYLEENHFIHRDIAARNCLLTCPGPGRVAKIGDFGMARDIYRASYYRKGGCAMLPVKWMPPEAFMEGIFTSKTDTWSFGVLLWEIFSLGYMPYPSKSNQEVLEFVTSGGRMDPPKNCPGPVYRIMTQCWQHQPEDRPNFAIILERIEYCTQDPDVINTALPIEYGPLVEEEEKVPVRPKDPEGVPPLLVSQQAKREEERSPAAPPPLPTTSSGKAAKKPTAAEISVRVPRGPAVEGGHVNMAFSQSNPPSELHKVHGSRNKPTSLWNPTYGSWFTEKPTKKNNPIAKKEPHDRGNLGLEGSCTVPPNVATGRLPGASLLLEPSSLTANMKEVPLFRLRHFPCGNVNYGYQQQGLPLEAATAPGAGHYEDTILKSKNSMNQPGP
# procedureText: ALK HTRF kinase assay
# Type: biochemical
# testParameters: compound at a concentration of 500 nM or 1 mM (not specified); cells shown as percentage
Structures can show the parent of a compound that is named as a salt.
Output spec: scalar in %, unitless text.

// field: ALK % of inhibition at a concentration of 500 nM or 1 mM; key: O=C(Nc1ccc2cc1CCc1cccc(c1)Nc1ncc(Cl)c(n1)N2)c1cccnc1Cl [Example B70, bis(trifluoroacetate)] ; value = 82

Lab note: O=C(Nc1ccccc1CCl)Nc1ccc2cc1CCc1cccc(c1)Nc1ncc(Cl)c(n1)N2 [Example B108, trifluoroacetate] gave ALK % of inhibition at a concentration of 500 nM or 1 mM of 21

According to the records, this compound CCOC(=O)c1coc(Nc2ccc3cc2CCc2cccc(c2)Nc2ncc(Cl)c(n2)N3)n1 [Example B278, bis(trifluoroacetate)] displays ALK % of inhibition at a concentration of 500 nM or 1 mM of 10

# compound O=C(O)c1cccc(S(=O)(=O)Nc2ccc3cc2CCc2cccc(c2)Nc2ncc(Cl)c(n2)N3)c1 [Example B159, trifluoroacetate] ; its ALK % of inhibition at a concentration of 500 nM or 1 mM = 82

Lab note: CC(=O)N1CC[C@H](NC(=O)Nc2ccc3cc2CCc2cncc(c2)Nc2ncc(Cl)c(n2)N3)C1 [Example B226, bis(trifluoroacetate)] gave ALK % of inhibition at a concentration of 500 nM or 1 mM of 15

// switching to the query compound
What the record says about O=C(Nc1ccc2cc1CCc1cccc(c1)Nc1ncc(Cl)c(n1)N2)c1cnn2ccccc12 [Example B80, bis(trifluoroacetate)] : ALK % of inhibition at a concentration of 500 nM or 1 mM is 73
